Recorded melting point for the following compounds

Sample records with melting point:
O=C(CCc1c[nH]c2ccccc12)N/N=C/c1ccccc1F [Compound 3E]    118 to 123 °C
O=C(CCc1c[nH]c2ccccc12)N/N=C/c1ccccc1 [Compound 3A]    169.8 to 171.2 °C

Given item CC1=C/C(=N/NC(=O)CCc2c[nH]c3ccccc23)c2ccccc2C1=O [Compound 3N] , the value recorded as its melting point is 248.6 to 249.5 °C

* * *

Recorded melting point for the following compounds

O=C(CCc1c[nH]c2ccccc12)N/N=C/c1ccc(Cl)cc1 [Compound 3G]    201.5 to 202.5 °C

Given item O=C(CCc1c[nH]c2ccc(F)cc12)N/N=C/c1ccccc1 [Compound 3I] , the value recorded as its melting point is 171.2 to 173.9 °C

Given item COc1ccc(/C=N/NC(=O)CCc2c[nH]c3ccccc23)cc1 [Compound 3B] , the value recorded as its melting point is 168.3 to 169.7 °C

Given item O=C(CCc1c[nH]c2ccc(F)cc12)N/N=C/c1ccccc1F [Compound 3J] , the value recorded as its melting point is 132.8 to 134 °C

Given item C/C(=N\NC(=O)CCc1c[nH]c2ccccc12)c1ccccc1 [Compound 3K] , the value recorded as its melting point is 156.2 to 158.2 °C

Given item O=C(CCc1c[nH]c2ccccc12)N/N=C/c1cccs1 [Compound 3F] , the value recorded as its melting point is 146.5 to 149.4 °C

Given item O=C(CCc1c[nH]c2ccccc12)N/N=C1\CCCc2ccccc21 [Compound 3L] , the value recorded as its melting point is 119.3 to 120.2 °C

Given item O=C(CCc1c[nH]c2ccccc12)N/N=C/c1ccsc1 [Compound 3D] , the value recorded as its melting point is 145.5 to 148.1 °C

Given item O=C(CCc1c[nH]c2ccc(F)cc12)N/N=C/c1ccc(F)cc1 [Compound 3M] , the value recorded as its melting point is 213.8 to 215.3 °C

* * *

- STUDY SYSTEM: wild-type nAChR α7 receptors (Homo sapiens)
- Construct: expressed in transfected cells; host or cells: Xenopus laevis oocytes
- Sequence (P36544 23-502): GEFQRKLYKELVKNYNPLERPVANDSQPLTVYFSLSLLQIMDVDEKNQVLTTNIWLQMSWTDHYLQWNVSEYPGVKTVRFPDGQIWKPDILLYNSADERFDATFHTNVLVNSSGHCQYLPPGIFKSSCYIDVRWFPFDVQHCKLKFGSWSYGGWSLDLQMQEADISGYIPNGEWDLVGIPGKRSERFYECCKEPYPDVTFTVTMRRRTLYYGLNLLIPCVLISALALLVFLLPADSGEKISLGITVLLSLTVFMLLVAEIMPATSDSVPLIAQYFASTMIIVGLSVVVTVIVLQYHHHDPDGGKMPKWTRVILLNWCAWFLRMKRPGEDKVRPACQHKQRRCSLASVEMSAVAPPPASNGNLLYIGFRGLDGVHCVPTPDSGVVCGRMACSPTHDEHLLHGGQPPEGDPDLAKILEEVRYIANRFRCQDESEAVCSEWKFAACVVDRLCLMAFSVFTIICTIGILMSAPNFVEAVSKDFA
- MEASUREMENT DESCRIPTION: Positive modulation of acetylcholine-induced currents at nAChR α7 receptors expressed in Xenopus laevis oocytes (two-electrode voltage clamp)
- Type: cell-based
- EXPERIMENTAL SETUP: 100 μM acetylcholine; oocytes clamped at −60 mV; 0.01-31.6 μM compound applied 30 s before and during acetylcholine; read-out: EC50 (concentration causing a half maximal response) for positive modulation of acetylcholine responses
PARAMETER MEASURED: EC50 (µM)
Answer in µM, number only, no unit symbol.

Given item `O=C(CCc1c[nH]c2ccccc12)N/N=C/c1ccc(F)cc1` , the value recorded as its EC50 is 4.1
